// competition rate lookup, one value per entry
biological target: T1, human MSLN-FL-his protein (human, UniProt Q13421 296-580); experiment: competitive ELISA; row F8-27.1; further: test concentration or dose not given here
T1 construct: made in HEK293E cells, purified on nickel column; also called hMSLN-FL-his; human MSLN full-length protein; not shown: His tag
T1 sequence (Q13421 other isoform, or with tags, fused parts or gaps): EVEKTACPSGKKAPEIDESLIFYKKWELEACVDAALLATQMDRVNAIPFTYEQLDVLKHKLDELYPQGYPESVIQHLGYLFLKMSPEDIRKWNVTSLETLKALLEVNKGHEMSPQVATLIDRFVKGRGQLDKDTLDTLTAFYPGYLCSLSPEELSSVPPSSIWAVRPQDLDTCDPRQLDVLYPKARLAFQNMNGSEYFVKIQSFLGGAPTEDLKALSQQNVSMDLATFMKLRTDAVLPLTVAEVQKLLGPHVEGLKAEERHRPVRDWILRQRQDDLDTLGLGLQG
Form entry: value (%) — number only.

Recorded competition rate (binder S009-F8-15.19 (antibody, human IgG1, kappa, V domains shown, human-murine chimeric antibody, human IgG1/kappa constant regions) VH: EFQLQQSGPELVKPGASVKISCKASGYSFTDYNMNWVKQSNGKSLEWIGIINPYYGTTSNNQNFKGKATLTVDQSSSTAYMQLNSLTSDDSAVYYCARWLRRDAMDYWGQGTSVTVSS VL: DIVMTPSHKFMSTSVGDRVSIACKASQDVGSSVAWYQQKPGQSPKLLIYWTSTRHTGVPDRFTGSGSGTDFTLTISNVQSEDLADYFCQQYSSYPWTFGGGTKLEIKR ): 75.5

Recorded competition rate (binder S009-F8-4.5 (antibody, human IgG1, kappa, V domains shown, human-murine chimeric antibody, human IgG1/kappa constant regions) VH: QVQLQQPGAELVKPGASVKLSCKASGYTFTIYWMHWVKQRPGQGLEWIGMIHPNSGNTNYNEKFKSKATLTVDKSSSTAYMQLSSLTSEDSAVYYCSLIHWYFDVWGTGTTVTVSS VL: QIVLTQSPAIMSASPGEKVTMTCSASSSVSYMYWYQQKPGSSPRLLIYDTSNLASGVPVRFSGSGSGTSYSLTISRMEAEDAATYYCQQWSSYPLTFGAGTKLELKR ): 99.8

Recorded competition rate (binder S009-F8-27.1 (antibody, human IgG1, kappa, V domains shown, human-murine chimeric antibody, human IgG1/kappa constant regions) VH: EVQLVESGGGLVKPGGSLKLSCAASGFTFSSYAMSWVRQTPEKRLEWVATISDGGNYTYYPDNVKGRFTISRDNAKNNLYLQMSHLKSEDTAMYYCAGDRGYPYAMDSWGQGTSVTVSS VL: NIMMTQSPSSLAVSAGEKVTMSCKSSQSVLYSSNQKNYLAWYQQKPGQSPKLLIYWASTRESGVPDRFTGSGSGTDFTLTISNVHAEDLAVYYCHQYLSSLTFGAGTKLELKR ): 95.3

Recorded competition rate (binder S009-F8-19.21 (antibody, human IgG1, kappa, V domains shown, human-murine chimeric antibody, human IgG1/kappa constant regions) VH: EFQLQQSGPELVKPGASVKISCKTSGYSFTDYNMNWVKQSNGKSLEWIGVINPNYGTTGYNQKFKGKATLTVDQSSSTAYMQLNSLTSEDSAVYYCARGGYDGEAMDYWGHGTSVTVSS VL: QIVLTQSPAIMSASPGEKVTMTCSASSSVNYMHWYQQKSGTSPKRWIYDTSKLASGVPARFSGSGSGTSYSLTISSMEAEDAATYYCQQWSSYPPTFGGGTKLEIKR ): 98.4

Recorded competition rate (binder S009-F8-13.8 (antibody, human IgG1, kappa, V domains shown, human-murine chimeric antibody, human IgG1/kappa constant regions) VH: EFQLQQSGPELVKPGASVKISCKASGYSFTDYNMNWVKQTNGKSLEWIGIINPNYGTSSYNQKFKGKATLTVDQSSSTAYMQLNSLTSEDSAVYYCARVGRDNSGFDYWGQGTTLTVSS VL: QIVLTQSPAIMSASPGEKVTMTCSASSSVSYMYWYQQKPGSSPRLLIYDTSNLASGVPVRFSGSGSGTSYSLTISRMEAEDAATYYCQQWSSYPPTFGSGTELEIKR ): 98.4

Recorded competition rate (binder S009-F8-31.22 (antibody, human IgG1, kappa, V domains shown, human-murine chimeric antibody, human IgG1/kappa constant regions) VH: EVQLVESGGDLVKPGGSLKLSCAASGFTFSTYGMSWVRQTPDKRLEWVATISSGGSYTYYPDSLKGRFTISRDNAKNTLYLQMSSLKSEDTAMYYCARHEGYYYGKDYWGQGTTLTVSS VL: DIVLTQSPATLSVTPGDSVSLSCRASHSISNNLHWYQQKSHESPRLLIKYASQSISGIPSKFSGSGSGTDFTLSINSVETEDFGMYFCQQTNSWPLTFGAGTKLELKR ): 11.7

Recorded competition rate (binder S009-F8-12.13 (antibody, human IgG1, kappa, V domains shown, human-murine chimeric antibody, human IgG1/kappa constant regions) VH: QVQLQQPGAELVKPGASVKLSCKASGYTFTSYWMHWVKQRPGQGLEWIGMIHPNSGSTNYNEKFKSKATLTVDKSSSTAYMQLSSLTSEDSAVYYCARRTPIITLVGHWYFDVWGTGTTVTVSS VL: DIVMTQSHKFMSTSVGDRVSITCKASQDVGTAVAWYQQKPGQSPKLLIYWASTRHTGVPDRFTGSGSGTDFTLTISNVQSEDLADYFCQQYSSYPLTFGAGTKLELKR ): 93.5
